Origin of the recorded values: patent US11981658B2

MEASUREMENT_TARGET: EGFR wildtype (WT) (Homo sapiens, UniProt P00533)
Sequence (P00533 25-1210): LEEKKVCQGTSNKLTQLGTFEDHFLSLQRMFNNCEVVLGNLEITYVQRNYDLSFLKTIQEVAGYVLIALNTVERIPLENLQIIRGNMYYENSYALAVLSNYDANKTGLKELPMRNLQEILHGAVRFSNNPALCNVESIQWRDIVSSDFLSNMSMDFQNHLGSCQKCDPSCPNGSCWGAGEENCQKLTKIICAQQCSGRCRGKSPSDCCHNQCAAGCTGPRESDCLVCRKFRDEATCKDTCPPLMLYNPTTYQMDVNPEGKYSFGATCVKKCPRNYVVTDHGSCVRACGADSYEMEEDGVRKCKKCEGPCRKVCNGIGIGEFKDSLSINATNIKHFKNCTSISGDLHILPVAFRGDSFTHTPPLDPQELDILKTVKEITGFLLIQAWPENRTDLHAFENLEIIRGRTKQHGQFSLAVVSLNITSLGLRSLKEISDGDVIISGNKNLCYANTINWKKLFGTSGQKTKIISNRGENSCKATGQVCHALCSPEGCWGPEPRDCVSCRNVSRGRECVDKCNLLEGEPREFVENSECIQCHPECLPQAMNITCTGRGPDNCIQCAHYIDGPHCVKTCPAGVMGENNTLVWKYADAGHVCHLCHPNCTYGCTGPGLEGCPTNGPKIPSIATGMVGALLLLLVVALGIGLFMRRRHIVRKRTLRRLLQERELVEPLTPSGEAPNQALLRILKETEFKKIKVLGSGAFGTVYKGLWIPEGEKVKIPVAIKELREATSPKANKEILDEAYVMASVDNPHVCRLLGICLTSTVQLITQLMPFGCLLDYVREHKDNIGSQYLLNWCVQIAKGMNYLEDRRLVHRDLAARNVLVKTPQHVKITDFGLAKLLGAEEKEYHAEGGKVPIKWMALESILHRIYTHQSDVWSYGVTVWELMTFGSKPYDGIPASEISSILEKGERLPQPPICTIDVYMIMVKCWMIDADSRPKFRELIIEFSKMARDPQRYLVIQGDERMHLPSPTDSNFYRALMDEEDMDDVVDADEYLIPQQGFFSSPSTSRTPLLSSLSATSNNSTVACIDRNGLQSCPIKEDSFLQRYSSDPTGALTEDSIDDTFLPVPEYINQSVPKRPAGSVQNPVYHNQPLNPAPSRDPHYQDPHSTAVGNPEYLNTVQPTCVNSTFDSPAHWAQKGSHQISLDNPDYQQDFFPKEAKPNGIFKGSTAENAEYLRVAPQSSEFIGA
TEST_METHOD_NOTES: Biochemical EGFR kinase inhibition assay (Lance Ultra TR-FRET), wildtype
RUN_CONDITIONS: IC50 WT (nM), 100 μM ATP
RECORDED_METRIC: IC50

1) CC1(O)CC2(CCN(c3cc(Nc4ccnc(-c5cnn(S(=O)(=O)C6CC6)c5)n4)ncc3C#Cc3cnn(CC(F)(F)F)c3)CC2)C1 [Example 347]    7140 nM
2) CC1(CO)CCN(c2cc(Nc3ccnc(-c4cnn(S(=O)(=O)C5CC5)c4)n3)ncc2C#Cc2cnn(C3CCOCC3)c2)CC1 [Example 95]    1040 nM
3) O=S(=O)(C1CC1)n1cc(-c2nccc(Nc3cc(N[C@H]4CC[C@@H](O)CC4)c(C#Cc4cnn(CCF)c4)cn3)n2)cn1 [Example 42]    > 10000 nM
4) CC1(O)CCN(c2cc(Nc3ccnc(-c4cnn(S(=O)(=O)C5CC5)c4)n3)ncc2C#CC2CCO[C@H]2C(F)(F)F)CC1 (stereo partly drawn) [Example 417]    > 10000 nM
5) CC1(CO)CCN(c2cc(Nc3ccnc(-c4cnn(S(=O)(=O)C5CC5)c4)n3)ncc2C#Cc2cnn(CC3CCOC3)c2)CC1 (stereo not drawn) [Example 243]    2170 nM
6) Cn1cc(C#Cc2cnc(Nc3ccnc(-c4cnn(S(=O)(=O)C5CC5)c4)n3)cc2N2CCC(CO)CC2)c(C(F)(F)F)n1 [Example 90]    > 10000 nM
